Where do these numbers come from? They come from patent US9512125B2.

- System: HUVEC with or without PBMC (3C, 4H, SAG and LPS systems)
- assay-text: BioMAP inflammation model systems (3C, 4H, SAG, LPS), cell-based ELISA profiling
- Parameters: species or system human
- condition-label: 4 systems (3C, 4H, SAG, LPS); concentration of 5 micromolar; 24 h stimulation
measure: Activity

Consider the worked cases shown below.
{"columns": ["compound", "Activity"],
 "data": [
  ["CC(C)(C)n1nc(-c2ccc3ccccc3c2)c2c(N)ncnc21 [Compound 10]", "active"],
  ["CC(C)(C)n1nc(Cc2ccc(Cl)c(Cl)c2)c2c(N)ncnc21 [Compound 4]", "+"],
  ["Cc1ccccc1Cc1nn(C(C)(C)C)c2ncnc(N)c12 [Compound 31]", "active"],
  ["CCCn1nc(Cc2ccccc2Cl)c2c(N)ncnc21 [Compound 83]", "active"],
  ["Cc1cccc(-c2nn(C(C)(C)C)c3ncnc(N)c23)c1 [Compound 39]", "active"]
]}

Q: Recorded Activity of CC(C)(C)n1nc(Cc2ccccc2O)c2c(N)ncnc21 [Compound 26] , please.
A: +

Q: What do you have for CC(C)(C)n1nc(-c2ccccc2Cl)c2c(N)ncnc21 [Compound 37] ?
A: +

Q: What do you have for CC(c1ccccc1)c1nn(C(C)(C)C)c2ncnc(N)c12 (stereo not shown) [Compound 34] ?
A: +

Q: What do you have for CC(C)(C)n1nc(-c2cccc(N)c2)c2c(N)ncnc21 [Compound 17] ?
A: active

Q: What do you have for CC(C)(C)n1nc(-c2cccc3ccccc23)c2c(N)ncnc21 [Compound 19] ?
A: active

###

- Tested on: HUVEC with or without PBMC (3C, 4H, SAG and LPS systems)
- assay-text: BioMAP inflammation model systems (3C, 4H, SAG, LPS), cell-based ELISA profiling
- Parameters: species or system human
- condition-label: 4 systems (3C, 4H, SAG, LPS); concentration of 5 micromolar; 24 h stimulation
measure: Activity

Consider the worked cases shown below.
{"columns": ["molecule", "result"],
 "data": [
  ["Cc1ccc(Cc2nn(C(C)(C)C)c3ncnc(N)c23)cc1 [Compound 33]", "+"],
  ["Cc1sccc1Cc1n[nH]c2ncnc(N)c12 [Compound 66]", "active"],
  ["Cc1cc(C)cc(Cc2nn(C(C)(C)C)c3ncnc(N)c23)c1 [Compound 3]", "+"],
  ["CC(C)(C)n1nc(Cc2ccccc2Br)c2c(N)ncnc21 [Compound 59]", "active"]
]}

Q: Recorded Activity of Cc1n[nH]c2ncnc(N)c12 [Compound 46] , please.
A: +

Q: What do you have for Nc1ncnc2[nH]nc(-c3ccc4ccccc4c3)c12 [Compound 47] ?
A: active

Q: What do you have for CN(C)c1ncnc2c1c(Cc1ccccc1Cl)nn2C(C)(C)C [Compound 80] ?
A: active

###

- Tested on: HUVEC with or without PBMC (3C, 4H, SAG and LPS systems)
- assay-text: BioMAP inflammation model systems (3C, 4H, SAG, LPS), cell-based ELISA profiling
- Set-up: species or system human
- condition-label: 4 systems (3C, 4H, SAG, LPS); concentration of 5 micromolar; 24 h stimulation
measure: Activity

Consider the worked cases shown below.
{"columns": ["compound", "result"],
 "data": [
  ["CC(C)(C)n1nc(-c2cccc(Oc3ccccc3)c2)c2c(N)ncnc21 [Compound 22]", "active"],
  ["CC(C)(C)n1nc(-c2cccc(O)c2)c2c(N)ncnc21 [Compound 41]", "active"],
  ["CC(C)(C)n1nc(Cc2ccc(F)cc2F)c2c(N)ncnc21 [Compound 78]", "active"],
  ["CC(C)(C)n1nc(Cc2cccc(F)c2F)c2c(N)ncnc21 [Compound 82]", "active"],
  ["COCCn1nc(-c2ccccc2)c2c(N)ncnc21 [Compound 51]", "+"],
  ["CC(C)n1nc(Cc2ccccc2Cl)c2c(N)ncnc21 [Compound 62]", "active"]
]}

Q: Recorded Activity of Cn1nc(Cc2ccccc2Cl)c2c(N)ncnc21 [Compound 61] , please.
A: +

Q: What do you have for CC(C)(C)n1nc(Cc2ccc(F)cc2Cl)c2c(N)ncnc21 [Compound 69] ?
A: +

Q: What do you have for CC(C)(C)n1nc(Cc2ccc(Cl)cc2Cl)c2c(N)ncnc21 [Compound 68] ?
A: +

Q: What do you have for COc1ccccc1Cc1nn(C(C)(C)C)c2ncnc(N)c12 [Compound 28] ?
A: +

###

- Tested on: HUVEC with or without PBMC (3C, 4H, SAG and LPS systems)
- assay-text: BioMAP inflammation model systems (3C, 4H, SAG, LPS), cell-based ELISA profiling
- Design: species or system human
- condition-label: 4 systems (3C, 4H, SAG, LPS); concentration of 5 micromolar; 24 h stimulation
measure: Activity

Consider the worked cases shown below.
{"columns": ["compound-structure", "Activity"],
 "data": [
  ["COC(=O)Cn1nc(Cc2cccc3ccccc23)c2c(N)ncnc21", "+"],
  ["CC(C)(C)n1nc(C2(c3ccccc3Cl)CC2)c2c(N)ncnc21", "active"],
  ["CC(C)(C)n1nc(-c2ccc(-c3ccccc3)cc2)c2c(N)ncnc21", "active"],
  ["COC(=O)CCCn1nc(Cc2ccccc2Cl)c2c(N)ncnc21", "+"],
  ["CC(C)Cc1n[nH]c2ncnc(N)c12", "+"]
]}

Q: Recorded Activity of CC(C)(C)n1nc(Cc2ccccc2Cl)c2c(N)ncnc21 , please.
A: active

Q: What do you have for CC(C)(C)n1nc(-c2ccccc2OCc2ccccc2)c2c(N)ncnc21 ?
A: +

Q: What do you have for CC(C)n1nc(-c2cccc(O)c2)c2c(N)ncnc21 ?
A: active

###

- Tested on: HUVEC with or without PBMC (3C, 4H, SAG and LPS systems)
- assay-text: BioMAP inflammation model systems (3C, 4H, SAG, LPS), cell-based ELISA profiling
- Parameters: species or system human
- condition-label: 4 systems (3C, 4H, SAG, LPS); concentration of 5 micromolar; 24 h stimulation
measure: Activity

Consider the worked cases shown below.
{"columns": ["compound-structure", "measure", "result"],
 "data": [
  ["CC(C)(C)n1nc(C2CCCC2)c2c(N)ncnc21", "Activity", "+"],
  ["CC(C)(C)n1nc(Cc2cccc(Br)c2)c2c(N)ncnc21", "Activity", "+"],
  ["Cc1cccc(Cc2nn(C(C)(C)C)c3ncnc(N)c23)c1C", "Activity", "active"],
  ["CNc1ncnc2c1c(-c1cccc(O)c1)cn2C(C)C", "Activity", "+"],
  ["Cc1ccc(C)c(Cc2nn(C(C)(C)C)c3ncnc(N)c23)c1", "Activity", "+"]
]}

Q: Return Activity measured with HUVEC with or without PBMC (3C, 4H, SAG and LPS systems) given this compound: CCOCCn1nc(Cc2ccccc2Cl)c2c(N)ncnc21
A: +

Q: What do you have for Nc1ncnc2c1c(Cc1ccccc1Cl)nn2CCCCO ?
A: +

Q: What do you have for Nc1ncnc2c1c(Cc1ccccc1Cl)nn2C1CCCC1 ?
A: active

Q: What do you have for CNc1ncnc2c1c(-c1cccc(N)c1)nn2C(C)C ?
A: +

Q: What do you have for Nc1ncnc2[nH]nc(Cc3ccccc3)c12 ?
A: +

###

- Tested on: HUVEC with or without PBMC (3C, 4H, SAG and LPS systems)
- assay-text: BioMAP inflammation model systems (3C, 4H, SAG, LPS), cell-based ELISA profiling
- Design: species or system human
- condition-label: 4 systems (3C, 4H, SAG, LPS); concentration of 5 micromolar; 24 h stimulation
measure: Activity

Consider the worked cases shown below.
{"columns": ["compound", "measure", "result"],
 "data": [
  ["Cc1sccc1Cc1nn(C(C)(C)C)c2ncnc(N)c12", "Activity", "active"],
  ["CC(C)(C)n1nc(CCc2ccccc2)c2c(N)ncnc21", "Activity", "+"],
  ["Cc1ccc(-c2nn(C(C)(C)C)c3ncnc(N)c23)c2ccccc12", "Activity", "active"],
  ["CC(C)(C)n1nc(Cc2ccccc2C(F)(F)F)c2c(N)ncnc21", "Activity", "active"],
  ["CC(C)(C)c1ccc(-c2nn(C(C)(C)C)c3ncnc(N)c23)cc1", "Activity", "+"],
  ["CCC(C)CCn1nc(Cc2ccccc2Cl)c2c(N)ncnc21 (stereo not drawn)", "Activity", "active"],
  ["CC(C)n1cc(-c2cccc(O)c2)c2c(N)ncnc21", "Activity", "active"],
  ["CCCCCCn1nc(Cc2ccccc2Cl)c2c(N)ncnc21", "Activity", "active"]
]}

Read the next record carefully.
Q: Recorded Activity of CCCCCn1nc(Cc2ccccc2Cl)c2c(N)ncnc21 , please.
A: active

###

- Tested on: HUVEC with or without PBMC (3C, 4H, SAG and LPS systems)
- assay-text: BioMAP inflammation model systems (3C, 4H, SAG, LPS), cell-based ELISA profiling
- Set-up: species or system human
- condition-label: 4 systems (3C, 4H, SAG, LPS); concentration of 5 micromolar; 24 h stimulation
measure: Activity

Consider the worked cases shown below.
{"columns": ["compound", "test-target", "Activity"],
 "data": [
  ["CCCCn1nc(Cc2ccccc2Cl)c2c(N)ncnc21 [Compound 89]", "HUVEC with or without PBMC (3C, 4H, SAG and LPS systems)", "active"],
  ["CC(C)(C)n1nc(-c2cc3ccccc3s2)c2c(N)ncnc21 [Compound 86]", "HUVEC with or without PBMC (3C, 4H, SAG and LPS systems)", "active"],
  ["CC(C)(C)n1nc(Cc2cccc(O)c2)c2c(N)ncnc21 [Compound 24]", "HUVEC with or without PBMC (3C, 4H, SAG and LPS systems)", "+"],
  ["CC(C)(C)n1nc(Cc2ccccc2)c2c(N)ncnc21 [Compound 36]", "HUVEC with or without PBMC (3C, 4H, SAG and LPS systems)", "active"],
  ["CC(C)(C)Cn1nc(Cc2ccccc2Cl)c2c(N)ncnc21 [Compound 72]", "HUVEC with or without PBMC (3C, 4H, SAG and LPS systems)", "active"],
  ["CC(C)(C)n1nc(Cc2c(Cl)cccc2Cl)c2c(N)ncnc21 [Compound 60]", "HUVEC with or without PBMC (3C, 4H, SAG and LPS systems)", "active"],
  ["Cc1cc(-c2nn(C(C)(C)C)c3ncnc(N)c23)cc2ccccc12 [Compound 8]", "HUVEC with or without PBMC (3C, 4H, SAG and LPS systems)", "active"],
  ["CC(C)(C)n1nc(-c2ccc3c(c2)OCO3)c2c(N)ncnc21 [Compound 15]", "HUVEC with or without PBMC (3C, 4H, SAG and LPS systems)", "active"],
  ["CNc1ncnc2c1c(Cc1ccccc1Cl)nn2C(C)(C)C [Compound 76]", "HUVEC with or without PBMC (3C, 4H, SAG and LPS systems)", "active"],
  ["CC(C)(C)n1nc(Cc2ccc(O)cc2)c2c(N)ncnc21 [Compound 25]", "HUVEC with or without PBMC (3C, 4H, SAG and LPS systems)", "+"]
]}

Q: Return Activity measured with HUVEC with or without PBMC (3C, 4H, SAG and LPS systems) given this compound: CC(C)(C)n1nc(Cc2cc(F)ccc2F)c2c(N)ncnc21 [Compound 79]
A: active

Q: What do you have for COCCn1nc(-c2cccc(O)c2)c2c(N)ncnc21 [Compound 52] ?
A: active
